- tgt: T1, mouse common cytokine receptor γ-chain (IL-2Rγ) (mouse, UniProt P34902 23-263, limits assumed)
- T1 construct: Recombinant mouse IL-2Rγ protein; also called mo IL-2R; mouse IL-2R gamma
- T1 sequence (looked up): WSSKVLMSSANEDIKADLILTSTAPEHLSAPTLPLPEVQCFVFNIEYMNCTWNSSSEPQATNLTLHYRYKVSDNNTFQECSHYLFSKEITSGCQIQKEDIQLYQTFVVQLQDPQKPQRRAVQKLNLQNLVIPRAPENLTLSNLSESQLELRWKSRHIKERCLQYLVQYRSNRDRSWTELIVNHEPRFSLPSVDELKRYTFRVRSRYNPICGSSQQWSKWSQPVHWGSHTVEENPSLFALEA
- assay.protocol: P.E. binding ELISA
Label rule, in plain words: PE binding ELISA OD of 0.06 OD450 nm and up is satisfied, under 0.06 OD450 nm is not satisfied.

| binder | group.label |
| --- | --- |
| FJ1427_P035MP07A03 (VHH, tested as periplasmic extract; also called Clone nr) VHH: EVQLVESGGGLVQAGGSLRLSCAASGRTLSRYAMGWFRQAPGKEREYVAIDSWGGDTFYADSVEGRFTFSRDNAKNEVYLQMNSLQPEDTAVYYCAGAPTSFATTAYSSSNSYRYWGQGTQVTVSS | satisfied |
| FJ1427_P035MP07D08 (VHH, tested as periplasmic extract; also called Clone nr) VHH: QLQLVESGGGLVQAGGSLRLSCAASGRTLSRYAMGWFRQAPGKEREFVTANSWGGDTYYADSVQGRFTFSRDNAKNTVYLQMNSLQPEDTAVYYCAAAPTSFATTAYSSSNSYAYWGQGTQVTVSS | not satisfied |
| FJ1427_P035MP07H02 (VHH, tested as periplasmic extract; also called Clone nr; 592) VHH: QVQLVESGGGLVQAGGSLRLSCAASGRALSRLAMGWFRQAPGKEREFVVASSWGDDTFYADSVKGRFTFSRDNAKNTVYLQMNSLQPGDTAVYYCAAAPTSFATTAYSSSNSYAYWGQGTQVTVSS | satisfied |
| FJ1427_P035MP07B03 (VHH, tested as periplasmic extract; also called Clone nr) VHH: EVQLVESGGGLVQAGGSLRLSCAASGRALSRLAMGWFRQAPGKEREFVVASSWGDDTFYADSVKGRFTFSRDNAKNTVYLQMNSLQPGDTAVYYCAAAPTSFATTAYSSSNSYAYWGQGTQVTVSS | not satisfied |
| FJ1427_P035MP07A07 (VHH, tested as periplasmic extract; also called Clone nr) VHH: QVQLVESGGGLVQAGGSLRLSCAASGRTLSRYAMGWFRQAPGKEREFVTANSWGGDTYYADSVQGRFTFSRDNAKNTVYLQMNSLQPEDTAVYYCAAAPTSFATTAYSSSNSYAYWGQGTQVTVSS | not satisfied |
| FJ1427_P035MP07C10 (VHH, tested as periplasmic extract; also called Clone nr; 651) VHH: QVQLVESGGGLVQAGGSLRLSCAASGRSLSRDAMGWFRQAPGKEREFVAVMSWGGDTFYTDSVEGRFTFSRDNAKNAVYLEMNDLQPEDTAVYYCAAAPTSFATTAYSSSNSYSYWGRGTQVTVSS | satisfied |
| FJ1427_P035MP07D02 (VHH, tested as periplasmic extract; also called Clone nr; 588) VHH: QVQLQESGGGLVQAGGSLRLSCAASGRALSRLAMGWFRQAPGKEREFVVASSWGDDTFYADSVKGRFTFSRDNAKNTVYLQMNSLQPGDTAVYYCAAAPTSFATTAYSSSNSYAYWGQGTQVTVSS | not satisfied |
| FJ1427_P035MP07F07 (VHH, tested as periplasmic extract; also called Clone nr; 630) VHH: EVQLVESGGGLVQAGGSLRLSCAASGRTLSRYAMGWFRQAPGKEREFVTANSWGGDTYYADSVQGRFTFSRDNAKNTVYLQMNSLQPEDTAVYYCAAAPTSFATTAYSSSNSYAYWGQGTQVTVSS | not satisfied |

Data origin: patent US20240409645A1
